# System: HeLa
# testMethodNotes: HeLa proliferation
# Type: cell-based
# reportedConditions: Homo sapiens, read-out: HeLa proliferation EC50 (nM) DG
Counter-ions that a name gives are not always drawn.
The following molecules are listed with their measured EC50 values.
Output spec: scalar in nM, unitless text.

Known EC50 results, listed for orientation:
Looking up CC(C)NCCNc1ccc(S(=O)(=O)Oc2ccc3nc(NC(=O)CCCCCCCN)sc3c2)cc1 [Example 21, hydrochloride] , I see its EC50 listed as 2460

// EC50 lookup, molecule = CC(C)N(CCNc1ccc(S(=O)(=O)Oc2ccc3nc(NC(=O)C4CCC4)sc3c2)cc1)C(C)C [Example 60, hydrochloride] , result: 199

Reported EC50 ( CC(C)CNc1ccc(S(=O)(=O)Oc2ccc3nc(NC(=O)CCC4CCNCC4)sc3c2)cc1 [Example 29a, hydrochloride] ) = 1830

# EC50 (molecule: `CCCC(=O)Nc1nc2ccc(OS(=O)(=O)c3ccc(NCCNC(C)C)cc3)cc2s1` ) is 249

Notebook: `O=C(Nc1nc2ccc(OS(=O)(=O)c3ccc(NC4CCCC4)cc3)cc2s1)C1CC1` , EC50 read as 631

More entries:
The molecule listed as `CC(C)NCCNc1ccc(S(=O)(=O)Oc2ccc3nc(NC(=O)C(C)C)sc3c2)cc1` has a reported EC50 of 195

Value of measured EC50 for the entry CC(C)N(CCNc1ccc(S(=O)(=O)Oc2ccc3nc(NC(=O)CCCCCN)sc3c2)cc1)C(C)C [Example 49, hydrochloride] : 2700
